TEST TARGET: Neu5Ac(a2-6)Gal(b1-4)GlcNAc(b1-2)Man(a1-3)[Neu5Ac(a2-6)Gal(b1-4)GlcNAc(b1-2)Man(a1-6)]Man(b1-4)GlcNAc(b1-4)[Fuc(a1-6)]GlcNAc
ASSAY REMARKS: glycan array binding signal (z-score within array); higher = stronger binding
CONDITION NOTES: glycan notation: IUPAC condensed, linker removed
The sample as a whole holds a higher share of the strongest signals than the screen did.
VALUE TYPE: glycan array binding signal (z-score)
Answers are plain numbers.

Recorded glycan array binding signal (z-score), per entry:
| BINDER | glycan array binding signal (z-score) |
| --- | --- |
| Calsepa (Calystegia sepium), P93114 (protein) MAVPMDTISGPWGNNGGNFWSFRPVNKINQIVISYGGGGNNPIALTFSSTKADGSKDTITVGGGGPDSITGTEMVNIGTDEYLTGISGTFGIYLDNNVLRSITFTTNLKAHGPYGQKVGTPFSSANVVGNEIVGFLGRSGYYVDAIGTYNRHK | 0.514 |
| LlpA (Arthrobacter sp) (protein) MGSSHHHHHHSSGLVPRGSHMTLHPETALRPGAAATSPNSRYRLLYQTDGNLVLYGPDGPLWDSGTNGHGAGACIMQADGNLVLYGPNDEYVWDTETDNNPGSRLVIQDDGNAVIYRPDGSPLWATETCQPPGSADSHVLQSGSTLTPTHGIRSANGLYGLLYQTDGNLVFYGPDGPLWDSGTNGRGAGACIMQPDGNLVLYGPHDEYVWDTETDNNPGSRLVIQDDGNAVIYRPDGNPTWVTGTH | 2.31 |

Hi team, please reply with glycan array binding signal (z-score) for each item in this list.
1. OGAA (protein) MVQKESQATLEERESELSSNPAASAGASLEPPAAPAPGEDNPAGAGGAAVAGAAGGARRFLCGVVEGFYGRPWVMEQRKELFRRLQKWELNTYLYAPKDDYKHRMFWREMYSVEEAEQLMTLISAAREYEIEFIYAISPGLDITFSNPKEVSTLKRKLDQVSQFGCRSFALLFADIDHNMCAADKEVFSSFAHAQVSITNEIYQYLGEPETFLFCPTEYCGTFCYPNVSQSPYLRTVGEKLLPGIEVLWTGPKVVSKEIPVESIEEVSKIIKRAPVIWDNIHANDYDQKRLFLGPYKGRSTELIPRLKGVLTNPNCEFEANYVAIHTLATWYKSNMNGVRKDVVMTDSEDSTVSIQIKLENEGSDEDIETDVLYSPQMALKLALTEWLQEFGVPHQY
2. LICBM33A (Lactococcus lactis), Q9CE94 (protein) MKKLLTGLLVAAGLLSVSLLIKTDTVSAHGYVQSPPARGYQGQLDSQSLGWTAAFNIYGNVISNPQSLEAPKGFPECGPADGRIASANGGLGQIGDFVLDNQTSSRWKKTSISTGSNIFTWKYTAPHKTTKWHYYMTKTGWDQNAPLKHSELELIGTINHDGSPATNNLSHTINIPTDRSGYHIVLAVWDVADTSNAFYNVIDINVNNKNASSQVFGPFL
3. Gal-9-hFc (Mus musculus), O08573-2 (protein) MALFSAQSPYINPIIPFTGPIQGGLQEGLQVTLQGTTKSFAQRFVVNFQNSFNGNDIAFHFNPRFEEGGYVVCNTKQNGQWGPEERKMQMPFQKGMPFELCFLVQRSEFKVMVNKKFFVQYQHRVPYHLVDTIAVSGCLKLSFITFQTQNFRPAHQAPMAQTTIHMVHSTPGQMFSTPGIPPVVYPTPAYTIPFYTPIPNGLYPSKSIMISGNVLPDATRFHINLRCGGDIAFHLNPRFNENAVVRNTQINNSWGQEERSLLGRMPFSRGQSFSVWIICEGHCFKVAVNGQHMCEYYHRLKNLQDINTLEVAGDIQLTHVQT

-0.088
4.31
-0.496
